Where do these numbers come from? They come from ChEMBL document CHEMBL1126255.

molecular target: Glutamate receptor ionotropic, kainate; assay: Concentration required for 50% inhibition of [3H]-kainic acid binding to ionotropic glutamate receptor ionotropic kainate in rat cortical slice preparation
OBSERVED PROPERTY: IC50

Answered examples (3):
{"MOLECULE": "NC(Cc1onc(O)c1CCO)C(=O)O (centres undefined)", "TEST TARGET": "Glutamate receptor ionotropic, kainate", "IC50": "> 100 µM"}
{"MOLECULE": "Cc1c(O)noc1CC(N)C(=O)O (centres undefined)", "TEST TARGET": "Glutamate receptor ionotropic, kainate", "IC50": "> 100 µM"}
{"MOLECULE": "CCCCc1c(O)noc1CC(N)C(=O)O (centres undefined)", "TEST TARGET": "Glutamate receptor ionotropic, kainate", "IC50": "> 100 µM"}

API: the following record is the query input.
IN: Specify IC50 for CCCCCCCCc1c(O)noc1CC(N)C(=O)O (centres undefined) , system Glutamate receptor ionotropic, kainate.
OUT: > 100 µM

----------
molecular target: Glutamate receptor ionotropic, AMPA (Rattus norvegicus, UniProt P19490+P19491+P19492+P19493); assay: Concentration required for 50% inhibition of [3H]AMPA binding to AMPA receptor in rat cortical slice preparation
OBSERVED PROPERTY: pIC50
pIC50 is defined as minus the log10 of a concentration measured in mol/L.

Answered examples (2):
{"COMPOUND": "CCCCc1c(O)noc1CC(N)C(=O)O (centres undefined)", "pIC50": 5.70}
{"COMPOUND": "NC(Cc1onc(O)c1CCO)C(=O)O (centres undefined)", "pIC50": 5.70}

IN: Assign pIC50 to the following record: Cc1c(O)noc1CC(N)C(=O)O (centres undefined)
OUT: 6.22
